We begin with a simple list: items and their reported IC50.
tested on: CEM cells HIV-1 protection, formazan growth assay; assay: NCI AIDS Antiviral Assay; conditions: measured here: growth of uninfected CEM cells
The response must be a number in µM with no trailing unit.

molecule | target.entity | quantitative.result
COc1cccc(SSc2cccc(OC)c2OC)c1OC | CEM cells HIV-1 protection, formazan growth assay | 16.6
O=C1CCCCC/C1=C\c1ccc(F)cc1 | CEM cells HIV-1 protection, formazan growth assay | 61.7
CC(=O)NC(=O)c1ccccc1O | CEM cells HIV-1 protection, formazan growth assay | 389
COc1cccc(C2c3cc4c(cc3OC(N3CCCC3)C2C)OCO4)c1OC (stereo not given) | CEM cells HIV-1 protection, formazan growth assay | 1.41
C=CC1CC1(CO)COc1cc(Cl)nc(N)n1 (stereo not given) | CEM cells HIV-1 protection, formazan growth assay | 141

In the following, a different molecule is considered.
Per the records, this molecule ( Cc1ccc(S(=O)c2sccc2C=O)cc1 (stereo not given) ) has IC50 equal to 9.77

###

tested on: CEM cells HIV-1 protection, formazan growth assay; experiment: NCI AIDS Antiviral Assay; conditions: measured here: growth of uninfected CEM cells
We begin with a simple list: items and their reported IC50.
The response must be a number in µM with no trailing unit.

Here's what some known entries look like.
compound | unit.annotation | IC50
COc1ccccc1OC(=O)/C=C/c1ccccc1 | µM | 3.72
C=CC(C)(C)[C@@]12CC3C(=O)N[C@@H](Cc4ccccc4)C(=O)N3[C@@H]1N(C(C)=O)c1ccccc12 (stereo not given in full) | µM | 70.8
C[C@@H]1C(=O)O[C@@H]2C[C@@]1(C)[C@@H]1C(=O)C3(O)OC14C2(C)OC(=O)[C@@]4(O)CCC1C3C(O)C=C2CC=CC(=O)[C@@]21C (stereo not given in full) | µM | 20
COc1ccccc1S(=O)(=O)Sc1ccccc1[N+](=O)[O-] | µM | 25.7
S=c1[nH]c(=S)c2nnn(-c3ccccc3)c2[nH]1 | µM | 126

Per the records, this compound ( `Cc1ccc(Nc2nc(C)c(C(=O)C/C(=N/NC(N)=S)C(=O)Nc3cc(Cl)cc(Cl)c3)s2)cc1` ) has IC50 equal to 178

Per the records, this compound ( CCCC1(c2ccccc2)Oc2ccccc2-n2cccc2C1=O (stereo not given) ) has IC50 equal to 40.7

###

test system: CEM cells HIV-1 protection, formazan growth assay; assay: NCI AIDS Antiviral Assay; details: measured here: growth of uninfected CEM cells
pIC50: −log10 of the molar value.
Returns one of T or F; T when pIC50 is >= 5.

For orientation, consider the following solved cases.
compound | class.name
Cc1cc(NS(=O)(=O)c2ccc(NC(=O)c3ccc4nc5ccccc5c(Nc5ccc(S(=O)(=O)N=C(N)N)cc5)c4c3)cc2)no1 | F
C[C@@H](CC(=O)O)OC1OC(COC(=O)C(C)(C)C)C(OC(=O)C(C)(C)C)C(OC(=O)C(C)(C)C)C1OC(=O)C(C)(C)C (stereo partly drawn) | F
CCOC(=O)C(NC(=O)c1ccccc1)(Nc1ccc(S(=O)(=O)Nc2ncccn2)cc1)C(F)(F)F (stereo not drawn) | F
COP(=O)(N/N=C/C(=O)O)OC | F
CCOC1NC(=O)NC(=O)C1(C)Cl (stereo not drawn) | F

Then there is this compound:
(Q) Quick check: does `Nc1c2ccccc2nc2ccccc12` have pIC50 greater than or equal to 5?
(A) T
